Biological target: Metabotropic glutamate receptor 4 (Rattus norvegicus)
Sequence (P31423 whole entry): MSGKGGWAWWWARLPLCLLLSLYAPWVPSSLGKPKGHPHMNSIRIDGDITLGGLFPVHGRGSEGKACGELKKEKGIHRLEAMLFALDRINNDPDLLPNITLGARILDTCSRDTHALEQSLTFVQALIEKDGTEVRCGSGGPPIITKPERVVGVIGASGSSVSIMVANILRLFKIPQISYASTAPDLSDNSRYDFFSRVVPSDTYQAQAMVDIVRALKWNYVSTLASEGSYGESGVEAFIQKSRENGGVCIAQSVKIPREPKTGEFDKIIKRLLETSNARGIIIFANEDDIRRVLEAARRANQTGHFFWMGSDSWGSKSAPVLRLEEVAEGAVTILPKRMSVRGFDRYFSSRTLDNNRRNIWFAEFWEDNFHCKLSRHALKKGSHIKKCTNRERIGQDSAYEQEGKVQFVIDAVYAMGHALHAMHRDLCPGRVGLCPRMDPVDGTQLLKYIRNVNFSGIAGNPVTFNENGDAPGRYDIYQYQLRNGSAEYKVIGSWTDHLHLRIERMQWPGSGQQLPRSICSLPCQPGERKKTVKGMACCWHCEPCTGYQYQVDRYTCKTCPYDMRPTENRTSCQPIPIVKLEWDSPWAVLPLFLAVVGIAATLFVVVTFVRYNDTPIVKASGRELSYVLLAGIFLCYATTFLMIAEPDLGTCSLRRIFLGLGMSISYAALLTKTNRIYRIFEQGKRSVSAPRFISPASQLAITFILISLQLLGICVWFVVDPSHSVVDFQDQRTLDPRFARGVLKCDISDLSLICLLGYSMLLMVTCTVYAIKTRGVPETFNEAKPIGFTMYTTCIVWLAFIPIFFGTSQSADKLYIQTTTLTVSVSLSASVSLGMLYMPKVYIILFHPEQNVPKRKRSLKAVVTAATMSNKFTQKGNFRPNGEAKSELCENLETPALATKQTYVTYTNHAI
Assay: Positive allosteric modulator activity at rat mGlu4 receptor/Gqi5 in presence of EC20 glutamate by calcium mobilization assay
readout: EC50 (µM)
Give bare numbers, in µM.

Request: Please report EC50 for the following molecule: `FC(F)(F)c1nccc2cc(Nc3n[nH]c4ncccc34)ccc12`
Response: 0.197

###

Target: Metabotropic glutamate receptor 4 (Homo sapiens, UniProt Q14833)
Sequence (Q14833 whole entry): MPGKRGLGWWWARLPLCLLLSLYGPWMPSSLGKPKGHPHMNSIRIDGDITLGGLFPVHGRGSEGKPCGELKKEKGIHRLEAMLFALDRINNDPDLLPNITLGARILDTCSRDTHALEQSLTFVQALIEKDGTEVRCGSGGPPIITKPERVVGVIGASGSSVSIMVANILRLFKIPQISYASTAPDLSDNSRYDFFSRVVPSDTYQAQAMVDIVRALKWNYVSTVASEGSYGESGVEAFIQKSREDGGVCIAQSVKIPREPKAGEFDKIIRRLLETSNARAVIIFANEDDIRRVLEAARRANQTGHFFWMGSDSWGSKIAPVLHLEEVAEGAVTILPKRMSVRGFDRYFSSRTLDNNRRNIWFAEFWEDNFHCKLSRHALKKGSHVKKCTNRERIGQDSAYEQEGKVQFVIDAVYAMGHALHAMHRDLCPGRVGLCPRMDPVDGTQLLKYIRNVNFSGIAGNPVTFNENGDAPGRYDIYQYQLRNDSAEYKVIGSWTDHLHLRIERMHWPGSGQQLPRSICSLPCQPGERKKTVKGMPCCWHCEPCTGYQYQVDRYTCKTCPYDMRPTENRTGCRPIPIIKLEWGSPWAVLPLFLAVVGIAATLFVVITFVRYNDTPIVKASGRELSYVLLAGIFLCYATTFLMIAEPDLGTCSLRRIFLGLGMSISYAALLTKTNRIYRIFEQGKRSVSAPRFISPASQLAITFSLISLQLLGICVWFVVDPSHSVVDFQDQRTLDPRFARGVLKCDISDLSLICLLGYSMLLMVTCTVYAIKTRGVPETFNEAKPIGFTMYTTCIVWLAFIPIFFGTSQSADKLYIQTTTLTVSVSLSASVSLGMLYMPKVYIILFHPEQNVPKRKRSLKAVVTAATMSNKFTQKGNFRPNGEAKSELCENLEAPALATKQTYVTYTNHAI
Assay: Positive allosteric modulator activity at human mGlu4 receptor/Gqi5 in presence of EC20 glutamate by calcium mobilization assay
Field: log10 of EC50. Provide a value for each of the compounds that follow.
In plain terms, each number is the log10 of measured EC50 in µM.

I have 3 compounds here; please give me log10 of EC50 for each one.
1. FC(F)(F)c1nccc2cc(Nc3n[nH]c4nccnc34)ccc12
2. c1ccc2cc(Nc3n[nH]c4cccnc34)ccc2c1
3. FC(F)c1nccc2cc(Nc3n[nH]c4cccnc34)ccc12

Response:
1. -1.29
2. -0.39
3. -2.10

###

Test: Protein binding in rat plasma assessed as unbound fraction
Format: ADME, cell-free
readout: fraction unbound
Numbers only.

Request: Please report fraction unbound for the following compound: `c1cnc2c(Nc3ccc4cnccc4c3)n[nH]c2c1`
Response: 0.046

###

Field: Activity. Provide a value for each of the compounds that follow.
System: Rattus norvegicus
Assay: Reversal of haloperidol-induced catalepsy in rat assessed as reduction in catalepsy at 3 mg/kg, po dosed along with 1.5 mg/kg haloperidol relative to untreated control
Assay type: functional
Set-up: scale not given: the % may be the effect or the level left
One number for each entry, in %.

Reference set, count: 3
FC(F)c1nccc2cc(Nc3n[nH]c4cccnc34)ccc12	45
FC(F)(F)c1nccc2cc(Nc3n[nH]c4ncccc34)ccc12	50
FC(F)(F)c1nccc2cc(Nc3n[nH]c4nccnc34)ccc12	24

Moving on to another compound below.
Request: Please report Activity for the following compound: `FC(F)(F)c1nccc2cc(Nc3n[nH]c4cccnc34)ccc12`
Response: 24

###

Consider compounds characterized by their IC50 with Cytochrome P450 2C9 (Homo sapiens, UniProt P11712).
Sequence (P11712 whole entry): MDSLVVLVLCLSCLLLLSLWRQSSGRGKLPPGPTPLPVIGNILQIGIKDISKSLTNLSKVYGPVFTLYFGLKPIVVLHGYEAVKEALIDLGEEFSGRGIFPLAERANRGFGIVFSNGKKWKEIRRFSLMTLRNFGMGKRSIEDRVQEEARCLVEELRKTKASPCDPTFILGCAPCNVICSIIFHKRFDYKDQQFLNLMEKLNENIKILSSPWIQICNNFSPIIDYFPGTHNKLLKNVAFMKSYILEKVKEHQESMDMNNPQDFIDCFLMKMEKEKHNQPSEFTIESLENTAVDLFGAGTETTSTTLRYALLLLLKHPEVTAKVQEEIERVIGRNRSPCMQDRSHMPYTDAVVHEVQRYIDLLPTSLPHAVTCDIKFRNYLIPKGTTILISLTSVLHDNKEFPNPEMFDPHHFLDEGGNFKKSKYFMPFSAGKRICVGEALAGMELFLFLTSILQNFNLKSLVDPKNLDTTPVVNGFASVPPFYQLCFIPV

c1cnc2c(Nc3ccc4c(-n5cccn5)nccc4c3)n[nH]c2c1	7.3 µM

Moving on to another compound below.
Request: Please report IC50 for the following compound: `c1cnc2c(Nc3ccc4cnccc4c3)n[nH]c2c1`
Response: 1.35 µM

###

Target: UniProt Q14833
Assay: Positive allosteric modulator activity at human mGlu4 receptor/Gqi5 in presence of EC20 glutamate by calcium mobilization assay
pEC50: −log10 of the molar value.
Please mark Criterion met if the recorded pEC50 is equal to or greater than 7, and Criterion not met if it falls below.

// known answers, use as guide
FC(F)(F)C1CCCCN1c1nccc2cc(Nc3n[nH]c4cccnc34)ccc12 (stereo unspecified)	Criterion not met
c1cnc2c(Nc3ccc4ccncc4c3)n[nH]c2c1	Criterion not met
O=c1[nH]ccc2cc(Nc3n[nH]c4cccnc34)ccc12	Criterion not met

Request: Is pEC50 at least 7? Consider `c1cnc2c(Nc3ccc4c(NC5CCC5)nccc4c3)n[nH]c2c1`
Response: Criterion not met

Request: Is pEC50 at least 7? Consider `Cn1nccc1-c1nccc2cc(Nc3n[nH]c4cccnc34)ccc12`
Response: Criterion met

###

Assay: Brain to plasma partition coefficient, Kp of the compound in Sprague-Dawley rat at 0.20 to 0.25 mg/kg, iv cassette dose measured at 0.25 hrs
Assay type: ADME, organism-based
Settings: dose 0.20-0.25 mg/kg
Hi! Could you tag entries with Kp at 0.25 h below 2 as yes (1), and those at or above as no (0)? Much appreciated.

// known answers, use as guide
FC(F)(F)c1nccc2cc(Nc3n[nH]c4cccnc34)ccc12	no (0)
Cn1nccc1-c1nccc2cc(Nc3n[nH]c4cccnc34)ccc12	yes (1)
FC(F)c1nccc2cc(Nc3n[nH]c4cccnc34)ccc12	no (0)
FC(F)(F)c1nccc2cc(Nc3n[nH]c4ncccc34)ccc12	yes (1)
c1cnc2c(Nc3ccc4c(-n5cccn5)nccc4c3)n[nH]c2c1	yes (1)

Pending compound:
Request: Check if Kp at 0.25 h falls below 2 for CC(c1nccc2cc(Nc3n[nH]c4cccnc34)ccc12)C(F)(F)F (stereo unspecified) .
Response: no (0)

###

Molecular target: Metabotropic glutamate receptor 4 (Homo sapiens, UniProt Q14833)
Experiment: Positive allosteric modulator activity at human mGlu4 receptor/Gqi5 assessed as maximum activity at 30 uM by calcium mobilization assay relative to glutamic acid
Assay type: functional
Conditions: filed as positive allosteric modulator
Please mark Satisfied if the recorded Activity is equal to or greater than 60%, and Not satisfied if it falls below.

// known answers, use as guide
Cn1ccc2cc(Nc3n[nH]c4cccnc34)ccc2c1=O	Not satisfied
COCCNc1nccc2cc(Nc3n[nH]c4cccnc34)ccc12	Satisfied
FC(F)(F)c1nccc2cc(Nc3n[nH]c4nccnc34)ccc12	Satisfied

Pending compound:
Request: Is Activity at least 60%? Consider `c1cnc2c(Nc3ccc4c(-n5cccn5)nccc4c3)n[nH]c2c1`
Response: Satisfied

###

Consider molecules characterized by their IC50 with Cytochrome P450 3A4 (Homo sapiens, UniProt P08684).
Sequence (P08684 whole entry): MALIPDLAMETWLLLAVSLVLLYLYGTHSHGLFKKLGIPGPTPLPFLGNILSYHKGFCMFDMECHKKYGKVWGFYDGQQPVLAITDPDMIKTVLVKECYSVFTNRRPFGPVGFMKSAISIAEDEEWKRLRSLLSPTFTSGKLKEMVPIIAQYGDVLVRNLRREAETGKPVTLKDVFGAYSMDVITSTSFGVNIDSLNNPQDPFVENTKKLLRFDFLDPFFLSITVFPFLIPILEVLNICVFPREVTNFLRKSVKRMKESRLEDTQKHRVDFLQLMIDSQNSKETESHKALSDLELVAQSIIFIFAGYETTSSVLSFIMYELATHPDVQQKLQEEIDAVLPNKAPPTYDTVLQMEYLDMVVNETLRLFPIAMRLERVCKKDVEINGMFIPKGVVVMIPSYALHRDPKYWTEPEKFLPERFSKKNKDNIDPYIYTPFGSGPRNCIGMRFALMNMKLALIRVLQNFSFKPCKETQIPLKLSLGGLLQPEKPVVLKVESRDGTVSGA
Numbers only, in µM.

c1cnc2c(Nc3ccc4cnccc4c3)n[nH]c2c1	0.44

Moving on to another molecule below.
Request: # assay system Cytochrome P450 3A4 (Homo sapiens, UniProt P08684): give IC50 of `c1cnc2c(Nc3ccc4c(-n5cccn5)nccc4c3)n[nH]c2c1`
Response: 13

###

Molecular target: UniProt Q14833
Experiment: Positive allosteric modulator activity at human mGlu4 receptor/Gqi5 in presence of EC20 glutamate by calcium mobilization assay
readout: EC50 (nM)
Give bare numbers, in nM.

Reference set, count: 5
c1cnc2c(Nc3ccc4c(N5CCCC5)nccc4c3)n[nH]c2c1	1690
c1cnc2ccc(Nc3n[nH]c4cccnc34)cc2c1	732
O=c1c2ccc(Nc3n[nH]c4cccnc34)cc2ccn1CC1CCC1	653
CC(c1nccc2cc(Nc3n[nH]c4cccnc34)ccc12)C(F)(F)F (stereo not drawn)	36
c1cnc2c(Nc3ccc4c(C5CC5)nccc4c3)n[nH]c2c1	71

Moving on to another molecule below.
Request: Please report EC50 for the following molecule: `CN1CCN(c2nccc3cc(Nc4n[nH]c5cccnc45)ccc23)CC1`
Response: 1290

###

Field: EC50. Provide a value for each of the molecules that follow.
Biological target: UniProt:Q14833
Test: Positive allosteric modulator activity at human mGlu4 receptor/Gqi5 in presence of EC20 glutamate by calcium mobilization assay
One number for each entry, in µM.

CCN(CC)c1nccc2cc(Nc3n[nH]c4cccnc34)ccc12	0.164

I have 5 molecules here; please give me EC50 for each one.
1. FC(F)(F)c1nccc2cc(Nc3n[nH]c4cccnc34)ccc12
2. Cc1ccn(-c2nccc3cc(Nc4n[nH]c5cccnc45)ccc23)n1
3. CC(C)Cn1ccc2cc(Nc3n[nH]c4cccnc34)ccc2c1=O
4. c1cnc2c(Nc3ccc4c(N5CCCCC5)nccc4c3)n[nH]c2c1
5. c1cnc2c(Nc3ccc4cnccc4c3)n[nH]c2c1

Response:
[0.018, 0.237, 0.685, 0.215, 0.076]

###

Field: Activity. Provide a value for each of the compounds that follow.
Target: Metabotropic glutamate receptor 4 (Homo sapiens, UniProt Q14833)
Assay: Positive allosteric modulator activity at human mGlu4 receptor/Gqi5 assessed as maximum activity at 30 uM by calcium mobilization assay relative to glutamic acid
Format: functional
Conditions: filed as positive allosteric modulator
One number for each entry, in %.

Reference set, count: 6
c1cnc2c(Nc3ccc4c(NC5CCC5)nccc4c3)n[nH]c2c1	71
CC(C)Cn1ccc2cc(Nc3n[nH]c4cccnc34)ccc2c1=O	24
c1cnc2c(Nc3ccc4c(C5CC5)nccc4c3)n[nH]c2c1	86
O=c1c2ccc(Nc3n[nH]c4cccnc34)cc2ccn1C1CCCC1	22
c1ccc(CNc2nccc3cc(Nc4n[nH]c5cccnc45)ccc23)cc1	58
FC(F)(F)c1nccc2cc(Nc3n[nH]c4ncccc34)ccc12	93

Request: Please report Activity for the following compound: `c1cnc2c(Nc3ccc4cnccc4c3)n[nH]c2c1`
Response: 114
